# Test system: P12-Ichikawa
# assay_info: cell viability relative to DMSO control; higher = less cytotoxic
# recorded_conditions: RPMI 5 mM glucose + 10% FBS; 48 h; 0.0211 µM
attribute_measured: cell viability (%)
One number for each entry, in %.

Consider the reported cell viability for these compounds:
Cc1cnc(C(=O)O)c[n+]1[O-]    126
NC(=O)c1cccc2cn(-c3ccc([C@@H]4CCCNC4)cc3)nc12    100
COC1=C2C[C@@H](C)C[C@H](OC)[C@H](O)[C@@H](C)/C=C(\C)[C@H](OC(N)=O)[C@@H](OC)/C=C/C=C(\C)C(=O)NC(=CC1=O)C2=O    112
c1ccc(CNc2nc(N3CCOc4ccccc43)nc3c2CCCC3)cc1    106
CC[C@@]1(O)C(=O)OC\C2=C1\C=C\3N(CC4=C3N=C5C=CC=CC5=C4)C2=O    69.9

Incoming: Query cell viability on P12-Ichikawa for C[C@H]1[C@@H](C(=O)C[C@H]2O[C@@H]3O[C@]4(C)CC[C@H]5[C@H](C)CC[C@@H]([C@H]2C)[C@@]35OO4)O[C@@H]2O[C@]3(C)CC[C@H]4[C@H](C)CC[C@@H]1[C@@]24OO3
Outgoing: 121
